Biological target: T1, CRBN, Q96SW2;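 further: pooled lentiviral library of zinc finger degron-EGFP fusions in mCherry-positive Jurkat cells, FACS-sorted after compound exposure, with degron abundance counted by next-generation sequencing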
T1 chain: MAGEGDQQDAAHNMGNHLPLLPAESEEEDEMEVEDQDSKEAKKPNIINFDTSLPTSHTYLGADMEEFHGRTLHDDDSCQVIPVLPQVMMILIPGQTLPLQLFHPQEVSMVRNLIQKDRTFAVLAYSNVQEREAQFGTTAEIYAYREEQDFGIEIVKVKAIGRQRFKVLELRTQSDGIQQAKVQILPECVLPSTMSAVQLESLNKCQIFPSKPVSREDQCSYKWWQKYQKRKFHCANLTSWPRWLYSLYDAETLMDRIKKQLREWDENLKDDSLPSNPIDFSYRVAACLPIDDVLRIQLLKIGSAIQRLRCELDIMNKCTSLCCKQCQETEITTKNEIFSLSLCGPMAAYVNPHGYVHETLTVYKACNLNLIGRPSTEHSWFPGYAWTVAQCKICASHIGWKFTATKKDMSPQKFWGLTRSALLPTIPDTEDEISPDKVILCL
Assay: log2 fold change of degron read counts, EGFP-low vs EGFP+ sorted cells (limma voom), compound-induced degradation; higher = more compound-induced degradation of the degron-EGFP fusion; degrons are variants of IKZF1/3 zinc finger 2; compound dose not given here
Settings: Jurkat; 18 h; compound: compound 19 (5-tert-butyl-thalidomide)
In all, about 8,300 sequences were measured (“log2 fold change of degron read counts, EGFP-low vs EGFP+ sorted cells (limma voom), compound-induced degradation”: median about -1.1, highest 2% from about 3.2 on). Many of the other results were omitted from the sample, so the highest values are more common in it than they were.

Chain sequence	log2 fold change of degron read counts
FFCPQCGAEFTQKGNLLRHIKL [46F_47F_49P_50Q_52G_53A_54E_55F_67L_, Q9UKT9]	-0.388
FSCPICGRLFTQKGNLLRHIKL [46F_47S_49P_50I_52G_53R_54L_55F_67L_, Q9UKT9]	-0.866
FICEICGAAFTQKGNLLRHIKL [46F_47I_49E_50I_52G_53A_54A_55F_67L_, Q9UKT9]	0.759
FQCEICGAAFTQKGNLLRHIKL [46F_47Q_49E_50I_52G_53A_54A_55F_67L_, Q9UKT9]	2.89
